B1: tRNA (parent)
chain: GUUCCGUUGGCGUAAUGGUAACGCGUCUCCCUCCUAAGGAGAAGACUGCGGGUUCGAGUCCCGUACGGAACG

- Variants of: B1
- Assay name: yeast fitness relative to wild type (ratio to wild type); higher = fitter; tRNA-Arg(CCU), competitive growth, 37 C, YPD
Fewer inactive variants are shown than the library holds.
Kindly return 1 if reported yeast fitness is no lower than 0.7; return -1 if it is lower.

q: Confirm if yeast fitness reported for the variant U19A A21G C27U C33U G67C is 0.7 or above.
a: -1

q: Can you check G6A C11A C61A next?
a: -1

q: Can you check U47C C49A A65G next?
a: -1

q: Can you check A20C G25C G44C G58A G68C next?
a: -1

q: Can you check C4A U26G G44C G56C G58A G68C next?
a: -1
